tested on: U-251; experiment: NCI tumour cell line growth inhibition, 48 h
Active and inactive are the calls of the source. No stated cut-off is given here; in the data, active = GI50 up to about 1.1 µM and inactive = higher.
propertyName: GI50

Item "Cc1nn(CN2CCN(C)CC2)c(=S)n1/N=C/c1ccc(-c2ccc(Cl)cc2Cl)o1" ; assay system U-251; GI50 reported as 32.8 µM (inactive)

The reported U-251 GI50 of "O=C1CCCCC1=C(I)I" is 16.3 µM (inactive)

Measured GI50 for this entry "O=C1/C(=C\c2ccc(Cl)cc2Cl)Sc2scc(-c3ccc(O)c(O)c3)[n+]21" on U-251: 11.9 µM (inactive)

# "CN(C)Cc1cc(/N=N/c2ccc(Cl)cc2)ccc1O" with U-251: GI50 is 17.4 µM (inactive)

U-251 data for "CCOC(=O)c1cc(Br)c(-c2cc(C)co2)[nH]1" ; its GI50: > 100 µM (inactive)

Measured GI50 for this entry "COc1ccc(/C=C/NC=O)cc1" on U-251: > 100 µM (inactive)

GET /values?item= C=C1C(C(=O)O)C1C(=O)O (configuration not stated) &system= U-251 returns GI50: > 100 µM (inactive)

Case CCCCCCCCCCCCP(=O)(O)OCC(N)C(=O)O (configuration not stated) , U-251, GI50 recorded as 11.4 µM (inactive)

Record "O=[N+]([O-])c1cc2ncc(-c3ccccc3)c(O)c2cc1/C(Cl)=C/c1ccccc1" ; system U-251; GI50 = 6.5 µM (inactive)

# "CCOC(=O)c1c(-c2ccccc2)c(OC)cn1C" with U-251: GI50 is > 10 µM (inactive)

Item: "CS(=O)(=O)N(CCC#N)c1ccc(/C=N/NC(=O)CC(=O)Nc2cccc(Cl)c2)cc1" | System: U-251 | GI50: > 100 µM (inactive)

Short answer on U-251 for "CS(=O)(=O)OCCCCOS(=O)(=O)CF" , GI50: > 100 µM (inactive)

Tested system U-251; GI50 recorded for "Br[C@@H]1[C@H]2c3nc4ccccc4nc3[C@@H]1C[C@H]2Br" was 69.2 µM (inactive)

// returns GI50 for N#CC(C(=O)CCC(=O)Nc1ccc(Cl)cc1)c1ccccc1Cl (configuration not stated) with U-251; value = > 100 µM (inactive)

The measured GI50 that "C/C(C=O)=C/[C@@]1(C)O[C@@H](C)[C@@](C)(O)[C@@H]1O" showed for U-251 is > 100 µM (inactive)

// molecule "O=C1Nc2ccc(Cl)cc2C(=O)N2CCC[C@@H]12" , assay U-251, GI50 value: > 100 µM (inactive)

Let me check: OC1NC2Nc3ccccc3NC2NC1O (configuration not stated) , system U-251, measured GI50 is > 100 µM (inactive)

Item: C=CC1(C(=O)O)CCC(C(C)(C)C)CC1 (configuration not stated) | System: U-251 | GI50: > 100 µM (inactive)

Hey, U-251 data for COc1cc2c(cc1OC)[C@H]1C(COC(=O)c3ccccc3)CS/C(=N/c3ccccc3)N1CC2 (some centres not stated) : GI50 came out at 24.3 µM (inactive)

GI50 on U-251 for "COc1ccc2c(c1)CCN1C3=C(CCC3)C(=O)C[C@@H]21" is > 100 µM (inactive)

Record "C=C1C[C@@H]2O[C@H]3[C@H]4[C@@H](C[C@@H](C)[C@@H](OC(C)=O)[C@H]42)[C@@H](C)CO[C@@]3(C)[C@H](OC(=O)CCCCCCC)C[C@H]1O" has U-251 GI50 equal to 16.9 µM (inactive)

// assay U-251, entry "CO[C@]12C[C@@H](CNC(=O)c3cc(Br)c[nH]3)O[C@H]1NC(=O)N2" , GI50 value = > 100 µM (inactive)

* * *

test system: SF-268; test: NCI tumour cell line growth inhibition, 48 h
Activity calls are given as the source filed them. Rule as the data show it: active = GI50 up to about 1.1 µM and inactive = higher.
Could you please pick one outcome from this set? active, inactive

Task: // outcome(item) with item = O=C1CC23CCCCCCCCCCC2(C1)CC(=O)C3 (configuration not stated)
Result: inactive

Task: Hi, sorry to bother you, what did the test record for "CCCCCCc1ccc(C(=O)NO)cc1" ?
Result: inactive

Task: Recorded test outcome, item CN1CCCOC(c2ccc(Cl)cc2)O1 (configuration not stated)
Result: inactive

Task: For "COC(=O)C1=C(C(=O)OC)SC(=C2c3ccsc3-c3sccc32)S1" , which call appears in the assay record?
Result: inactive

Task: I would be grateful if you could indicate the recorded call for CCOC(=O)C1Cc2[nH]c3ccccc3c2C(C)C1C (configuration not stated) .
Result: inactive

Task: Returns: the outcome recorded for "CCN(CC)CCNc1ccc2nnn3c4ccc([N+](=O)[O-])cc4c(=O)c1c23" in this assay.
Result: inactive

Task: Hi, do you know how "COc1ccc(OC)c2c1C=CC(Br)=CC2" came out in this test?
Result: active

Task: Please share the test call associated with "COc1cc(=O)oc(/C=C/CO)c1C" .
Result: inactive

Task: Status in this test for "CCN(CC)CCC(=O)/C=C/c1ccc(C)cc1" ?
Result: inactive

Task: How did this test come out for CSC1CC2C(CC1(C)SC)C2(C)C (configuration not stated) ?
Result: inactive

Task: Please let me know the test result on file for "O=C(Nc1ccc(Cl)c(Cl)c1)OCCN1c2ccccc2Sc2ccccc21" .
Result: inactive

Task: Dear colleague, could you share the recorded outcome for Cc1ccc(C(=O)C2CC3(CCC2(O)c2ccc(C)cc2)CC(=O)Nc2ccccc2C3=O)cc1 (configuration not stated) when you have a moment?
Result: inactive

* * *

system: TK-10; test: NCI tumour cell line growth inhibition, 48 h
The source made the active and inactive calls. Rule as the data show it: active = GI50 up to about 1.1 µM and inactive = higher. Residues, ends and D or L forms follow the SMILES beside them. *: point of attachment. Boc = CC(C)(C)OC(=O)*
propertyName: GI50

Reported GI50 of "C=CC1(c2ccc(Cl)c(Cl)c2)OCCO1" : > 100 µM (inactive)

Just so you know, measured GI50 for COC(=O)C1[C@H](C(=O)OC)C1(Br)CBr (stereo partly specified) came out at > 100 µM (inactive)

Recorded GI50 (molecule COC(=O)C(Cc1c[nH]c2ccccc12)NC(=O)C(Cc1c[nH]c2ccccc12)NC(=O)C(Cc1c[nH]c2ccccc12)NC(=O)C(Cc1c[nH]c2ccccc12)NC(=O)C(Cc1c[nH]c2ccccc12)NC(=O)C(Cc1c[nH]c2ccccc12)NC(=O)OC(C)(C)C (stereo unspecified) (Boc-WWWWWW-OMe; configuration not given here) ): 31.2 µM (inactive)

So, "N#Cc1ccc(/C=N/NC(=O)CSCC(=O)N/N=C/c2ccc(C#N)cc2)cc1" ? Its GI50 was 56 µM (inactive)

response.value for "Cc1nc2c(o1)/C(=N\c1ccccc1)c1nc(C)oc1/C2=N/c1ccccc1" (field: GI50) = 32.7 µM (inactive)

GI50 measured on "COc1cc2c(cc1OC)C(=O)/C(=C/c1ccccc1)C2" = > 100 µM (inactive)

* * *

tested on: ACHN; test: NCI tumour cell line growth inhibition, 48 h
Activity calls are given as the source filed them. Rule as the data show it: active = GI50 up to about 1.1 µM and inactive = higher.
propertyName: GI50

Record CC(=O)O[C@H]1CCC2[C@@H]3CC[C@]4(C)CC(=O)C=C[C@]4(C)C3CC[C@@]21C (stereo not given in full) has ACHN GI50 equal to 49 µM (inactive)

GI50 value, target or system ACHN, for "C/C(=C\c1ccccc1)C(=O)NCc1ccc(C(=O)NCCc2ccccc2)cc1" : > 94.6 µM (inactive)

Entry "[N-]=[N+]=CC(=O)CCC(=O)N(c1ccccc1)c1ccccc1" under ACHN had GI50 of > 10 µM (inactive)

Summary: "CCOC(=O)CSc1nc(N)c2c(-c3ccccc3)c3c(nc2n1)CCCC3" , ACHN, GI50 = > 100 µM (inactive)

The reported ACHN GI50 of CN1CCCOC(c2ccc(Cl)cc2)O1 (stereo not given) is > 100 µM (inactive)

* * *

test system: NCI-H522; assay: NCI tumour cell line growth inhibition, 48 h
Where a name gives a salt, the structure may show the parent alone. Active and inactive are the calls of the source. No stated cut-off is given here; in the data, active = GI50 up to about 1.1 µM and inactive = higher.
In this exercise, the only acceptable responses are 1 (yes) (active), 0 (no) (inactive)

Task: Query: recorded result category for "COc1ccc(Nc2ccc3ccccc3c2-c2c(O)ccc3ccccc23)cc1" in this test
Result: 0 (no)

Task: Record request — test call for Cc1ccc(SC2C(C)(C)N(C(C)C)P2(=O)N(C(C)C)C(C)C)cc1 (stereo not drawn)
Result: 0 (no)

Task: Dear colleague, could you share the recorded outcome for O=C(CNC(=O)OCc1ccccc1)NCCCCC(NC(=O)OCc1ccccc1)C(=O)O (stereo not drawn) when you have a moment?
Result: 0 (no)

Task: What outcome does the record of this test show for "CN(c1c(Cl)cccc1Cl)S(=O)(=O)c1ccccc1[N+](=O)[O-]" ?
Result: 0 (no)

Task: Please share the test call associated with C[C@@H]1CCC2C(C)(C)C(/C=C\C=O)C3(C)OC213 (stereo partly drawn) .
Result: 0 (no)

Task: Which outcome was assigned to "NC(S)=Nc1cc(Cl)ccc1Cl" in this test?
Result: 0 (no)

Task: Write down the call the test reported for this compound. Item: "c1cc2nnsc2s1"
Result: 0 (no)

Task: Hi, sorry to bother you, what did the test record for "O=C1C(Cl)=C(N2CCN(c3ccccn3)CC2)C(=O)c2c(O)ccc(O)c21" ?
Result: 0 (no)

Task: Please let me know the test result on file for "O=C(Nc1ccc(C(F)(F)F)cc1[N+](=O)[O-])c1cccnc1" .
Result: 0 (no)

Task: Could you please tell me the result logged for CN[C@@H](C)[C@@H](O)c1ccccc1 [PSEUDOEPHEDRINE HYDROCHLORIDE] in this assay?
Result: 0 (no)

Task: Assay result, entry CCO[C@@]12CCC3CC4CC[C@@](OCC)(O1)C4C32 (stereo partly drawn) — outcome?
Result: 0 (no)

Task: Look up the recorded call for "CN(C)C(=O)CO/N=C1/C(=C2/C(=O)Nc3ccccc32)Nc2ccccc21" in this test.
Result: 0 (no)

Task: Recorded call for CC(C)(Br)C(Br)CCC(C)(Br)C(Br)CO (stereo not drawn) ?
Result: 0 (no)

Task: # lookup: test call for "CC12C/C(=C\c3ccccc3)C(=O)C3C1CCCC32"
Result: 0 (no)

Task: Look up the recorded call for "N/C(=N\c1ccc(Cl)cc1)NS(=O)(=O)c1c(C(F)(F)F)cccc1C(F)(F)F" in this test.
Result: 0 (no)

Task: I'd appreciate the recorded outcome for "c1ccc2c(c1)CCc1[nH]c3c(c1-2)-c1ccccc1CC3" from this test.
Result: 0 (no)

Task: Test call for this compound, please: CN(C)CC1CN/C(=N\C(=O)Nc2ccccc2)O1 (stereo not drawn)
Result: 0 (no)

Task: Identify the outcome logged in this assay for the compound shown: "OC(c1ccccc1)(c1ccccc1)c1nccc2ccccc12"
Result: 0 (no)

Task: Recorded test call requested for "N=C(N)c1ccc(/C=C/c2ccc(C(=N)N)cc2)cc1"
Result: 0 (no)

Task: Would you mind telling me which call this test gave "O=C1NC(=S)NC(=O)C1C(c1ccc(Cl)cc1)C1C(=O)NC(=S)NC1=O.c1ccncc1" ?
Result: 0 (no)

Task: Tell me the recorded outcome of this test for Cc1cn(C2CC(N)C(C(=O)O)O2)c(=O)[nH]c1=O (stereo not drawn) .
Result: 0 (no)

Task: Hi, do you know how COC(=O)/C=C/c1ccc2c(c1)CC1(C2)Cc2cc3c(cc2C1=O)CCC3 (stereo not drawn) came out in this test?
Result: 0 (no)

Task: Could you kindly confirm the outcome this assay logged for COc1cc2c(cc1OC)[C@H]1C(COC(=O)c3ccccc3)CS/C(=N/c3ccccc3)N1CC2 (stereo partly drawn) ?
Result: 0 (no)

Task: What outcome does the record of this test show for "CC1=C(C(=O)CC(=O)C(=O)Nc2cc(C)ccc2C)Sc2ccccc2N1" ?
Result: 0 (no)

Task: Record lookup: outcome of this test for COC(=O)C(CCCCCCCC(C(=O)OC)C1=Nc2nnc(N)n2C1=O)C1=Nc2nnc(N)n2C1=O (stereo not drawn) ?
Result: 0 (no)

Task: Look up the recorded call for "Cc1cc(O)nc2cc3oc4ccccc4c3cc12" in this test.
Result: 0 (no)

Task: // return assay outcome for CCOC(=O)C(NC(=O)c1nc[nH]c1[N+](=O)[O-])C(C)C (stereo not drawn)
Result: 0 (no)

Task: Would you mind telling me which call this test gave "O=C(NC1CCCCC1)N1CCNC1=S" ?
Result: 0 (no)

Task: Identify the outcome logged in this assay for the compound shown: "COc1cc2c(cc1OC)C1(c3ccccc3)CN(C2)Cc2cc(OC)c(OC)cc21"
Result: 0 (no)

Task: How was "C[C@]12C[C@H](O)[C@H]3[C@@H](CCC4=CC(=O)CC[C@@]43C)[C@@H]1CC[C@@H]2c1csc(-c2ccccc2)n1" classified in this test?
Result: 0 (no)

Task: Please indicate how the test categorized O=C1CC(Nc2ccccc2)c2c(Cl)sc(Cl)c21 (stereo not drawn) .
Result: 1 (yes)

Task: Status in this test for "O=c1[nH]nc(-c2ccccc2)n1/N=C\CC/C=N\n1c(-c2ccccc2)n[nH]c1=O" ?
Result: 0 (no)

Task: Called result for O=[N+]([O-])c1ccc(N2N=C(c3ccc4ccccc4c3O)CC2c2ccc(Cl)cc2)c([N+](=O)[O-])c1 (stereo not drawn)
Result: 0 (no)

Task: Outcome logged for O=C1C2C3C=CC(C2C(=O)N1COP(=O)(O)O)C1C2C(=O)N(COP(=O)(O)O)C(=O)C2C31 (stereo not drawn) in this assay:
Result: 0 (no)

Task: Could you please tell me the result logged for "CN(C)CN(C)c1nc(N(C)C)nc(N(C)C)n1" in this assay?
Result: 0 (no)

Task: What is the recorded call for this compound in the test? "COc1cc(-c2cc(=O)c3cc(C)c(C)c(C(=O)O)c3o2)cc(OC)c1OC"
Result: 0 (no)

Task: Per the assay record, what outcome was assigned to COC(=O)C1CN=CN1CCc1ccccc1 (stereo not drawn) ?
Result: 0 (no)

Task: Fill in: this test's call for COc1ccc(N2C(=O)CSC2c2c[nH]c3ccccc23)cc1 (stereo not drawn) is ___
Result: 0 (no)

Task: Given COC(=O)/C(=N\NC(=S)NN)C(C(=O)OC)C(=O)C(=O)Nc1cccc(C(F)(F)F)c1 (stereo not drawn) , state the outcome it received in this test.
Result: 0 (no)

Task: Dear all, I need the recorded test outcome for Cc1nn(C(=O)c2ccc(Cl)cc2)c2c1C(c1cccc([N+](=O)[O-])c1)SC(=N)N2 (stereo not drawn) , thank you.
Result: 0 (no)

Task: Answer briefly: the call reported for O=C(Nc1ccn(C2CC(I)C(COC(c3ccccc3)(c3ccccc3)c3ccccc3)O2)c(=O)n1)c1ccccc1 (stereo not drawn) in this assay.
Result: 0 (no)

Task: I'd appreciate the recorded outcome for OCC1OC(O)C(/N=C\c2ccc3c(c2)OCO3)C(O)C1O (stereo not drawn) from this test.
Result: 0 (no)

Task: Query: recorded result category for "CCCCCCCCCCCCOC(=S)NC" in this test
Result: 0 (no)
